Entries and their growth inhibition values follow.
- testMethodNotes: NCI Yeast Anticancer Drug Screen. Data for the rad18 strain (AID 177)
- details: S. cerevisiae rad18 mutant growth inhibition; at 11.0 µM; active compounds read high
Compounds without any hit were thinned out: in the full panel of roughly 79,000, 15% have a hit.
measureName: growth inhibition (%)

molecule	measureName	assayResult
CC(=O)OC1CCC2(C)C(=CCC3C4CCC5(OC6CC(C)CN(C(C)=O)C6C5C)C(C)=C4C(=O)C32)C1 (centres undefined)	growth inhibition	75
O=C1OC(CCl)CN1/N=C/c1ccc([N+](=O)[O-])o1 (centres undefined)	growth inhibition	91
CC(C)c1cc(C(C)C)c(O)c(C([O-])[O-])c1.CC(C)c1cc(C(C)C)c(O)c(C([O-])[O-])c1.CC(C)c1cc(C(C)C)c(O)c(C([OH2+])[OH2+])c1.CC(C)c1cc(C(C)C)c(O)c(C([OH2+])[OH2+])c1.[Cu+2].[Cu+2].[OH3+].[OH3+]	growth inhibition	34
COc1cc(C2c3cc4c(cc3OC(Nc3ccccc3)C2C)OCO4)cc(OC)c1O (centres undefined)	growth inhibition	-7
